Where these numbers come from: patent US9365522B2

Target: human RORγ-LBD (Homo sapiens, UniProt P51449)
Construct: made in house; host or cells: E. coli (BL-21)
Sequence (P51449 262-518): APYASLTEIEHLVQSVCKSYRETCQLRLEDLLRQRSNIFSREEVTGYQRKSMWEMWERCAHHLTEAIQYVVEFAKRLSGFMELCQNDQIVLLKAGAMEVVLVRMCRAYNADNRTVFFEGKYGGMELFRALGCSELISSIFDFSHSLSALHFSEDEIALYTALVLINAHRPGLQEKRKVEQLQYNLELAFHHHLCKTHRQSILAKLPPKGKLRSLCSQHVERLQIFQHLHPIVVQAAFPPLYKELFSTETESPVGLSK
Experiment: ROR gamma coactivator peptide recruitment Alphascreen assay (RORγ-LBD binding to GRIP1 coactivator peptide)
Format: biochemical
Conditions: 5 nM human RORγ-LBD, 30 nM 7-β-hydroxycholesterol, 50 nM biotinylated GRIP1 coactivator peptide, overnight incubation at room temperature; read-out: result (pIC50, RORγ coactivator peptide recruitment Alphascreen assay) (converted)
log10 of IC50 overview
A difference of one corresponds to tenfold IC50; all values are log10 with IC50 in nM.

Observe how each entry below is paired with its result.
compound="CC1(C)C[C@H](CN(CC(=O)c2c(Cl)cncc2Cl)C(=O)c2cnn([C@H]3CC[C@](C)(C(=O)O)CC3)c2C(F)(F)F)O1 [Example 685]" readout="log10 of IC50" number=1.99
compound="C[C@@H]1C[C@H](n2ncc(C(=O)N(CC(=O)c3c(Cl)cncc3Cl)CC(C)(C)C)c2C(F)(F)F)CC[C@@]1(C)C(=O)O [Example 874]" readout="log10 of IC50" number=0.89
compound="COC1(CN(CC(=O)c2c(Cl)cncc2Cl)C(=O)c2cnn([C@H]3CC[C@](C)(C(=O)O)CC3)c2C(F)(F)F)CCCCC1 [Example 645]" readout="log10 of IC50" number=1.14

So, Cc1cc(Cl)c(C(=O)CN(C[C@H]2CC(C)(C)O2)C(=O)c2cnn([C@H]3CC[C@](C)(C(=O)O)CC3)c2C(F)(F)F)c(Cl)c1 [Example 724] ? Its log10 of IC50 was 0.78

Value of measured log10 of IC50 for the entry O=C(CN(Cc1ccc(Cl)cc1)C(=O)c1cnn([C@H]2CC[C@H](C(=O)O)CC2)c1C(F)(F)F)c1c(Cl)ccc(F)c1Cl [Example 541] : 0.50

compound C[C@@H]1C[C@@H](n2ncc(C(=O)N(CC(=O)c3c(Cl)cncc3Cl)CC3CC(C)(C)C3)c2C(F)(F)F)CC[C@@H]1C(=O)O [Example 756] , log10 of IC50 observed: 0.41

Item: CC1(C)[C@@H]2C[C@H](N(CC(=O)c3c(Cl)cccc3Cl)C(=O)c3cnn([C@H]4C[C@@H](CC(=O)O)C4)c3C(F)(F)F)C[C@@H]21 (single isomer, unassigned) [Example 858] | log10 of IC50: 0.30

Data point: CC1(C)CCC(N(CCc2c(Cl)cncc2Cl)C(=O)c2cnn([C@H]3CC[C@H](C(=O)O)CC3)c2C(F)(F)F)CC1 [Example 550] ; log10 of IC50 = 1.33
